Tested on: Oryctolagus cuniculus
assayProtocol: Toxicity in New Zealand white rabbit myocardial ischemia/reperfusion injury model assessed as heart rate at 1.79 umol/kg, administered as single bolus dose at 180 mins of reperfusion (reference value: 254 +/- 11 bpm)
Format: organism-based
conditionsUsed: in vivo, 3 h
Would you mind telling me the reported Activity of each entry?
The reply should consist of the numeric value with the unit placed after it.

Would you kindly share the measured Activity for NC(=S)c1ccc(OC[C@H]2O[C@@H](n3cnc4c(N)ncnc43)[C@H](O)[C@@H]2O)cc1 ?
256 bpm

What Activity value was documented for this compound, NC(=S)c1ccc(OCCCCn2cnc3c(N)ncnc32)cc1 ?
255 bpm

Need Activity, item NC(=O)c1ccc(OCCCCn2cnc3c(N)ncnc32)cc1
262 bpm

Given the entry [Na+].[SH-] [SODIUM HYDROSULFIDE] , report its measured Activity.
262 bpm

Need Activity of Nc1ncnc2c1ncn2CCCCO , thanks.
270 bpm
